For each entry below, report its Critical temperature value.
conditions: Liquid; pulse heating
One number for each entry, in K.

Example entries and their recorded answers appear below.
{"smi": "c1ccc2c(c1)Cc1ccccc1-2", "recorded number": 836}
{"smi": "c1cc2ccc3cccc4ccc(c1)c2c34", "recorded number": 974}
{"smi": "c1ccc2c(c1)ccc1ccccc12", "recorded number": 893}
{"smi": "c1ccc2cc3ccccc3cc2c1", "recorded number": 894}

So what does the record say about Critical temperature for c1cc2c3c(cccc3c1)CC2 ?
820

###

Consider the following molecules; for each one, report its Critical pressure.
details: Liquid; pulse heating
One number for each entry, in kPa.

{"smi": "c1ccc2cc3ccccc3cc2c1", "Critical pressure, kPa": 3170}
{"smi": "c1ccc2c(c1)Cc1ccccc1-2", "Critical pressure, kPa": 3180}
{"smi": "c1cc2ccc3cccc4ccc(c1)c2c34", "Critical pressure, kPa": 3030}
{"smi": "c1cc2c3c(cccc3c1)CC2", "Critical pressure, kPa": 3700}

What value of Critical pressure has been reported for the following molecule? c1ccc2c(c1)ccc1ccccc12
3250
